# Test system: IL-6
# assayName: IL-6 level in BALF of the COPD model (ELISA)
# Type: in vivo, C57BL/6N mice
# assayContext: 15 mg/kg p.o., BALF, vs COPD-induced group
Record form. Attribute: IL-6 inhibition rate (%). Fill in for each entry.
Give bare numbers, in %.

Solved entries:
COc1ccc([C@@H]2OC[C@H]3[C@@H]2CO[C@@H]3c2ccc3c(c2)OCO3)cc1OC : 50.8
COc1ccc([C@H]2OC[C@H]3[C@@H]2CO[C@H]3c2cc(OC)c(OC)c(OC)c2)cc1OC [Compound S4, epimagnolin] : 0.0
COc1ccc([C@H]2OC[C@H]3[C@@H]2CO[C@@H]3c2cc(OC)c(OC)c(OC)c2)cc1OC : 64.9

Below are some compounds; for each one, tell me its IL-6 inhibition rate (%).
1. COc1cc([C@H]2OC[C@H]3[C@@H]2CO[C@@H]3c2cc(OC)c(OC)c(OC)c2)cc(OC)c1OC
2. COc1ccc([C@H]2OC[C@H]3[C@@H]2CO[C@@H]3c2ccc3c(c2)OCO3)cc1OC [Compound S5, dimethoxyaschantin]

Solution:
1: 45.9; 2: 36.1

Below are some compounds; for each one, tell me its IL-6 inhibition rate (%).
1. COc1ccc([C@H]2OC[C@H]3[C@@H]2CO[C@@H]3c2ccc(OC)c(OC)c2)cc1OC
2. COc1cc([C@H]2OC[C@H]3[C@@H]2CO[C@@H]3c2ccc3c(c2)OCO3)cc(OC)c1OC [Compound S6, aschantin]

Solution:
[56.2, 59.3]

----------
# System: reactive oxygen species
# assayName: Production of active oxygen species in BALF of the COPD model (DCF-DA)
# Format: in vivo, C57BL/6N mice
# assayContext: 15 mg/kg p.o., vs COPD-induced group
Record form. Attribute: Active oxygen inhibition rate (%). Fill in for each entry.
Give bare numbers, in %.

COc1cc([C@H]2OC[C@H]3[C@@H]2CO[C@@H]3c2cc(OC)c(OC)c(OC)c2)cc(OC)c1OC : 15.1
COc1cc([C@H]2OC[C@H]3[C@@H]2CO[C@@H]3c2ccc3c(c2)OCO3)cc(OC)c1OC [Compound S6, aschantin] : 30.6

Recorded result, COc1ccc([C@H]2OC[C@H]3[C@@H]2CO[C@H]3c2cc(OC)c(OC)c(OC)c2)cc1OC [Compound S4, epimagnolin] , Active oxygen inhibition rate (%): 13.5
